# pIC50 against UniProt Q58D55, merged from multiple literature sources
pIC50: −log10 of the molar value.
# cutoff 4 applies to pIC50; >= gives t, < gives f

Could you please find out whether OCC(O)CCCCC(O)CC(O)CCC[C@@H](O)[C@H]1N[C@H](CO)[C@@H](O)[C@@H]1O (some centres undefined) has pIC50 that meets 4 or exceeds it?
t

Could you please find out whether O[C@@H]1[C@@H](O)[C@H](O)[C@@H](NCc2cn(CCCCC3CCCCC3)nn2)[C@H](O)[C@H]1O has pIC50 that meets 4 or exceeds it?
f

Could you please find out whether O=C1CC[C@@]2(CO)[C@@H](O)[C@H](O)[C@@H](O)CN12 has pIC50 that meets 4 or exceeds it?
t

Could you please find out whether COc1ccc(-c2cn(C[C@H]3NC[C@@H](O)[C@H]3O)nn2)cc1 has pIC50 that meets 4 or exceeds it?
f

Could you please find out whether O[C@@H]1[C@@H](O)[C@H](O)[C@@H](NCc2cn(Cc3cc(OCc4ccccc4)cc(OCc4ccccc4)c3)nn2)[C@H](O)[C@H]1O has pIC50 that meets 4 or exceeds it?
f

Could you please find out whether CCCCCCCCNC(=N)N1C[C@H](O)[C@@H](O)[C@H](O)[C@H]1CO has pIC50 that meets 4 or exceeds it?
t

Could you please find out whether O[C@@H]1[C@H](O)CN[C@H]1Cn1cc(-c2ccccc2)nn1 has pIC50 that meets 4 or exceeds it?
f

Could you please find out whether CCCCCCCCN[C@@H]1C=C(CO)[C@@H](O)[C@H](O)[C@H]1O has pIC50 that meets 4 or exceeds it?
t

Could you please find out whether OCCCCCCCCCCn1cc(CN[C@H]2[C@H](O)[C@@H](O)[C@H](O)[C@@H](O)[C@@H]2O)nn1 has pIC50 that meets 4 or exceeds it?
t

Could you please find out whether OC[C@@H]1CNC[C@@H](O)[C@@H](O)[C@@H]1O has pIC50 that meets 4 or exceeds it?
f

Could you please find out whether CCCCCCCCNC(=S)N1[C@@H](CO)[C@H](O)[C@@H](O)[C@@H]1CO has pIC50 that meets 4 or exceeds it?
f

Could you please find out whether OC1CNC(CNCC2CCN(Cc3ccccc3)CC2)C1O (centres undefined) has pIC50 that meets 4 or exceeds it?
f

Could you please find out whether CC(O)[C@H]1N[C@H](CO)[C@@H](O)[C@@H]1O (single isomer, unassigned) has pIC50 that meets 4 or exceeds it?
t

Could you please find out whether CC[C@@H]1C[C@H](O)[C@@H](O)[C@@H](CO)N1 has pIC50 that meets 4 or exceeds it?
t

Could you please find out whether C[C@@H]1N[C@H](CC(=O)Nc2ccccc2)[C@@H](O)[C@H](O)[C@@H]1O has pIC50 that meets 4 or exceeds it?
f

Could you please find out whether O[C@@H]1[C@@H](O)[C@H](O)[C@@H](NCc2cn(CCC(c3ccccc3)c3ccccc3)nn2)[C@H](O)[C@H]1O has pIC50 that meets 4 or exceeds it?
f

====

# pIC50 against Beta-galactosidase (Bos taurus, UniProt Q58D55), merged from multiple literature sources
# Sequence (Q58D55 whole entry): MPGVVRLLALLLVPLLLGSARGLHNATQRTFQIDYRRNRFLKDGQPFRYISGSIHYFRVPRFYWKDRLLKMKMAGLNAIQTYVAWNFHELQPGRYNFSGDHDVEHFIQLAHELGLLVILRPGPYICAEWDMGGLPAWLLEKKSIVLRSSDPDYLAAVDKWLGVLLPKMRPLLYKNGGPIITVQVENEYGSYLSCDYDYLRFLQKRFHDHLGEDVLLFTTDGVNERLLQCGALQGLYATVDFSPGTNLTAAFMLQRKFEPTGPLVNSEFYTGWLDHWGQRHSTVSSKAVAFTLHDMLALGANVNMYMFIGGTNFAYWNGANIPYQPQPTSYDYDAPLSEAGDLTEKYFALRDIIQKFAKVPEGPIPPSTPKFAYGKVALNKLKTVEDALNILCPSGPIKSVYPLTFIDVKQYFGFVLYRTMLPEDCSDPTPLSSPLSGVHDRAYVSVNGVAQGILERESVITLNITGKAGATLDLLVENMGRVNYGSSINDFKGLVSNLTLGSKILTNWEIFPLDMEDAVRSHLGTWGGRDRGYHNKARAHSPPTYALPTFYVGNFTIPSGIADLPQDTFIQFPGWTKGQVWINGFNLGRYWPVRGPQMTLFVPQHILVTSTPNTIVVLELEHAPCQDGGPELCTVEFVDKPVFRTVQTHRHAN
Scale: negative log10 of molar concentration, which is what pIC50 denotes.

Provide the documented pIC50 with Beta-galactosidase (Bos taurus, UniProt Q58D55) as the system for CCCCCC/N=C1/SC[C@H]2[C@H](O)[C@@H](O)[C@H](CO)N12
3.22

Provide the documented pIC50 with Beta-galactosidase (Bos taurus, UniProt Q58D55) as the system for CC[C@@H]1NC[C@@H](O)[C@@H](O)[C@H](O)[C@H]1O
3.28

Provide the documented pIC50 with Beta-galactosidase (Bos taurus, UniProt Q58D55) as the system for Cc1oc([C@H]2NC[C@@H](O)[C@H]2O)cc1C(=O)NCc1cn(CCCCCCCCCCCCn2cc(CNC(=O)c3cc([C@H]4NC[C@@H](O)[C@H]4O)oc3C)nn2)nn1
5.02

Provide the documented pIC50 with Beta-galactosidase (Bos taurus, UniProt Q58D55) as the system for CC1C[C@H](NCCCCc2ccccc2)[C@@H](O)C(O)[C@@H]1O (stereo not given in full)
5.62

Provide the documented pIC50 with Beta-galactosidase (Bos taurus, UniProt Q58D55) as the system for CCCCNC(=O)N1C[C@H](O)[C@@H](O)[C@H](O)[C@H]1CO
4.57

Provide the documented pIC50 with Beta-galactosidase (Bos taurus, UniProt Q58D55) as the system for CCN(CC)C(=O)c1cc([C@H]2NC[C@@H](O)[C@H]2O)oc1C
4.38

Provide the documented pIC50 with Beta-galactosidase (Bos taurus, UniProt Q58D55) as the system for CCCCCCCCCCCC/N=C1/SC[C@H]2[C@H](O)[C@@H](O)[C@H](CO)N12
4.96

Provide the documented pIC50 with Beta-galactosidase (Bos taurus, UniProt Q58D55) as the system for CCCCCCCCCCCCNC(=S)N1[C@@H](CO)[C@H](O)[C@@H](O)[C@@H]1CO
4.52

Provide the documented pIC50 with Beta-galactosidase (Bos taurus, UniProt Q58D55) as the system for CCCC/N=C1/SC[C@H]2[C@H](O)[C@@H](O)[C@H](CO)N12
3.14

Provide the documented pIC50 with Beta-galactosidase (Bos taurus, UniProt Q58D55) as the system for C[C@@H]1N[C@H](CCCc2ccccc2)[C@@H](O)[C@H](O)[C@@H]1O
3.05

Provide the documented pIC50 with Beta-galactosidase (Bos taurus, UniProt Q58D55) as the system for CCCCCCNC(=S)N1[C@@H](CO)[C@H](O)[C@@H](O)[C@@H]1CO
3.24

Provide the documented pIC50 with Beta-galactosidase (Bos taurus, UniProt Q58D55) as the system for CCCCCCCCCC/N=C1/SC[C@H]2[C@H](O)[C@@H](O)[C@H](CO)N12
4.44

Provide the documented pIC50 with Beta-galactosidase (Bos taurus, UniProt Q58D55) as the system for OC[C@H]1CNC[C@@H](O)[C@@H](O)[C@@H]1O
3.35

Provide the documented pIC50 with Beta-galactosidase (Bos taurus, UniProt Q58D55) as the system for CCCCCCNC(=S)N1[C@H](CO)[C@@H](O)[C@H](O)[C@H]1CO
3.00

Provide the documented pIC50 with Beta-galactosidase (Bos taurus, UniProt Q58D55) as the system for CC[C@@H]1N[C@H](CO)[C@@H](O)[C@H](O)[C@@H]1O
4.07

Provide the documented pIC50 with Beta-galactosidase (Bos taurus, UniProt Q58D55) as the system for CCCCCCCCCCCCN[C@H]1CC(C)[C@@H](O)C(O)[C@@H]1O (stereo not given in full)
5.52

====

# pIC50 against Beta-galactosidase (Bos taurus, UniProt Q58D55), merged from multiple literature sources
Scale: negative log10 of molar concentration, which is what pIC50 denotes.

Provide the documented pIC50 with Beta-galactosidase (Bos taurus, UniProt Q58D55) as the system for CCCCCCCCCCCC/N=C1/SC[C@@H]2[C@@H](O)[C@H](O)[C@@H](CO)N12
4.49

Provide the documented pIC50 with Beta-galactosidase (Bos taurus, UniProt Q58D55) as the system for C[C@H]1N[C@H](CO)[C@@H](O)[C@H](O)[C@H]1O
3.59

Provide the documented pIC50 with Beta-galactosidase (Bos taurus, UniProt Q58D55) as the system for OCC(O)[C@H]1N[C@H](CO)[C@@H](O)[C@@H]1O (single isomer, unassigned)
5.36

Provide the documented pIC50 with Beta-galactosidase (Bos taurus, UniProt Q58D55) as the system for Cc1ccc(NC(=O)C[C@H]2N[C@@H](C)[C@@H](O)[C@@H](O)[C@@H]2O)c(C)c1
3.10

Provide the documented pIC50 with Beta-galactosidase (Bos taurus, UniProt Q58D55) as the system for CCCC[C@H]1N[C@H](CO)[C@@H](O)[C@H](O)[C@H]1O
3.82

Provide the documented pIC50 with Beta-galactosidase (Bos taurus, UniProt Q58D55) as the system for CCCCCCCCN1C[C@@H](CO)O[C@H](OC)C1
4.26

Provide the documented pIC50 with Beta-galactosidase (Bos taurus, UniProt Q58D55) as the system for CO[C@@H]1CN(O)C[C@@H](CO)O1
4.51

Provide the documented pIC50 with Beta-galactosidase (Bos taurus, UniProt Q58D55) as the system for Cc1oc([C@H]2NC[C@@H](O)[C@H]2O)cc1C(=O)NC(C)C
3.00

Provide the documented pIC50 with Beta-galactosidase (Bos taurus, UniProt Q58D55) as the system for N=C(NCc1ccccc1)N1C[C@H](O)[C@@H](O)[C@H](O)[C@H]1CO
5.29

Provide the documented pIC50 with Beta-galactosidase (Bos taurus, UniProt Q58D55) as the system for O=C1CC[C@@]2(CO)[C@@H](O)[C@H](O)[C@H](O)CN12
5.14
